# TARGET OR SYSTEM: T1, Her018P, Her2 ECD with a deletion in the CR2 (Domain IV) region expressed with a mIgG2a Fc tail (human; murine, UniProt P04626 23-599)
# T1 construct: Shares the name HER018 with the trastuzumab SMIP; also called 1.8 (Dimer); dimeric HER018; not shown: murine IgG2a Fc tail (C-terminal dimerising carrier) and any junction residues
# TEST METHOD NOTES: ELISA, soluble scFv on Her018
MEASURED ATTRIBUTE: binding result

{"BINDER": "S1R3A1_CS_1B9 (scFv, V domains shown, scFv, soluble from bacterial periplasm in the screen; also called Her2_S1R3A1_CS_1B9) VH: KVQLVQSGTEVKKPGESLKISCQGSGYRFSSDWIAWVRQMPGKGLEWMGIVYPGDSDTRYSPSFQGQVTISADKSISTAYLQWSGLKASDTAKYYCARVQQAVGAKGYAMDVWGKGTLVTVSS VL: QTVVIQEPSFSVSPGGTVTLTCGLSSGSVSTSYYPSWYRQTPGQAPHTLIHNTKIRSSGVPDRFSGSILGNNAALTITGAQADDESDYYCLLYMGSGIYVFGGGTKLTVL", "binding result": "binds"}
{"BINDER": "S1R3B1_BMV_1G11 (scFv, V domains shown, scFv, soluble from bacterial periplasm in the screen; also called Her2_S1R3B1_BMV_1G11) VH: QVQLVQSGGGLVQPGGSLRLSCAASGFTFSTYAMSWARQAPGKGLEWVSSISGDGGRILDADSAKGRFTISRDNSKNTLYLQMNGLRVEDTALYYCARADGNYWGRGTMVTVSS VL: QSVLTQPASVSGSPGQSITISCTGTSSDVGGYNYVSWYQQHPGKAPKLMIYEGSKRPSGVSNRFSGSKSGNTASLTISGLQAEDEADYYCSSYTTRSTRVFGGGTKLTVL", "binding result": "no binding"}
{"BINDER": "S1R3B1_BMV_1H9 (scFv, V domains shown, scFv, soluble from bacterial periplasm in the screen; also called Her2_S1R3B1_BMV_1H9) VH: QVQLQESGAGLVKPSGTLSLTCAVSGGSISSGNWWSWVRQPPGKGLEWIGEISHSGSTNYNPSLKSRVTISVDKSKNQFSLNLSSVTAADTAVYYCARVRGTVGDTRGPDYWGQGTLVTVSS VL: SSELTQDPAVSVALGQTVRITCQGDSLRSYYASWYQQKPGQAPVLVIYGKNNRPSGIPDRFSGSSSGNTASLTITGAQAEDEADYYCNSRDSSGNHVVFGGGTKLTVL", "binding result": "no binding"}
{"BINDER": "S1R3C1_BMV_1H11 (scFv, V domains shown, scFv, soluble from bacterial periplasm in the screen; also called Her2_S1R3C1_BMV_1H11) VH: GVQLVESGGGLVKPGGSLRLSCAASGFTFSSYNMNWVRQAPGKGLEWVSAISGSGGSTYYADSVTGRFTISRDNSKNTLYLQMNSLRAEDTAVYYCAKDTSGWYGDGMDVWGRGTLVTVSS VL: DIQMTQSPSTLSASIGDRVTITCRASEGIYHWLAWYQQKPGKAPKLLIYKASSLASGAPSRFSGSGSGTDFTLTISSLQPDDFATYYCQQYSNYPLTFGGGTKLEIK", "binding result": "no binding"}

Okay, now this binder:
Recorded result, S1R3A1_BMV_1F3 (scFv, V domains shown, scFv, soluble from bacterial periplasm in the screen; also called Her2_S1R3A1_BMV_1F3) VH: EVQLVESGEGLVKPGGSLRLSCTASGFTFRSYSLNWVRQAPGQGLEWVSSISSTSTYIYYADSVKGRFTISRDDAKNTLYLQMNSLRAEDTAAYYCVRLGSGGGYFPDYWGRGTLVTVSS VL: SSELTQDPAVSVALGQTVRITCQGDSLRSYYASWYQQKPGQAPVLVIYGKNNRPSGIPDRFSGSSSGNTASLTITGAQAEDEADYYCNSRDSSGNHVVFGGGTKLTVL , binding result: binds
